// data source = ChEMBL document CHEMBL1961873

Target: Dual specificity tyrosine-phosphorylation-regulated kinase 1A (Homo sapiens) (UniProt Q13627)
Settings: at 0.1 µM
Description: GSK_PKIS: DYRK1A mean inhibition at 0.1 uM [Nanosyn]
Each item that follows carries a reported inhibition.
property: inhibition

>  <smiles notation>
CNC(=O)c1cncc(/C=C/c2ccccc2Cl)c1

>  <endpoint result>
-0.68%

$$$$
>  <smiles notation>
Fc1ccc(-c2cc(-c3c[nH]nc3-c3ccccn3)ccn2)cc1

>  <endpoint result>
2.96%

$$$$
>  <smiles notation>
CCCN(CCS(C)(=O)=O)Cc1ccc(-c2ccc3ncnc(Nc4ccc(OCc5cccc(F)c5)c(Cl)c4)c3c2)o1

>  <endpoint result>
4.83%

$$$$
>  <smiles notation>
NC(=O)c1sc(-n2cnc3ccc(C(F)(F)F)cc32)cc1OCc1ccccc1Br

>  <endpoint result>
2.74%

$$$$
>  <smiles notation>
[O-][S+]1CCN(Cc2ccc(-c3ccc4ncnc(Nc5ccc(OCc6cccc(F)c6)c(Cl)c5)c4c3)o2)CC1

>  <endpoint result>
4.05%

$$$$
>  <smiles notation>
COc1ccc2[nH]c3c4[nH]c5ccc(OC)cc5c4c4c(c3c2c1)C(=O)NC4=O

>  <endpoint result>
10.1%

$$$$
